Source listed as paper PMC7216583.

Listing of recorded inhibition of growth at 5 µM by entry.
- System: Toxoplasma gondii RH-2F tachyzoites
- Test Details: microbe, parasite or virus in culture
- Protocol Conditions: 72 h, read-out: Parasite inhibition (%) mean, preliminary screen of compound library, mean
Quick reminder: number only, in %, skip the unit.

Molecule	Unit Spec	inhibition of growth at 5 µM
O=C(/C=C/c1cccnc1)NCCCCC1CCN(C(=O)c2ccccc2)CC1	%	10.4
C[C@H]1C[C@H]2[C@@H]3CCC4=CC(=O)C=C[C@]4(C)[C@@H]3C(=O)C[C@]2(C)[C@]1(O)C(=O)CO	%	0.9
COc1cc2ncnc(Nc3ccc(Cl)cc3F)c2cc1OC	%	70.2
Cc1cnc(-c2cc(N3CCN(C(=O)CCS(C)(=O)=O)CC3)ncc2Cl)c(C)c1	%	-0.8
Cc1ccc(S(=O)(=O)n2c(N)nc3ccccc32)cc1	%	3.3

Lab note: need inhibition of growth at 5 µM for CCn1c(=O)c2c(nc(/C=C/c3ccc(OC)c(OC)c3)n2C)n(CC)c1=O on Toxoplasma gondii RH-2F tachyzoites, anyone have it? -1.9

Lab note: need inhibition of growth at 5 µM for O=C(c1ccc(Nc2nccc(-c3cc4ccccc4s3)n2)cc1)N1CCC(N2CCCC2)CC1 on Toxoplasma gondii RH-2F tachyzoites, anyone have it? 99.8

Lab note: need inhibition of growth at 5 µM for OC[C@H]1O[C@@H](c2ccc(Cl)c(Cc3ccc(O[C@H]4CCOC4)cc3)c2)[C@H](O)[C@@H](O)[C@@H]1O on Toxoplasma gondii RH-2F tachyzoites, anyone have it? 3.8

Lab note: need inhibition of growth at 5 µM for NC1(Cc2ccc(Cl)cc2)CCN(c2ncnc3[nH]ccc23)CC1 on Toxoplasma gondii RH-2F tachyzoites, anyone have it? -25.6

Lab note: need inhibition of growth at 5 µM for CC(=O)OCC(=O)[C@]1(O)CC[C@H]2[C@@H]3CCC4=CC(=O)CC[C@]4(C)[C@@H]3C(=O)C[C@@]21C [Cortisone acetate (Cortone)] on Toxoplasma gondii RH-2F tachyzoites, anyone have it? 44.8

* * *

- Test Details: in vitro
- Protocol Conditions: human, Host viability (%) mean
Where a name gives a salt, the structure may show the parent alone.
Assign labels as follows, please: True for viability at 72 h below 70%; False for viability at 72 h equal to or exceeding 70%.

Compound	Assigned Class
CCn1cc(-c2ccnc3[nH]c(-c4cccc(CN(C)C)c4)cc23)c(-c2ccc(NC(=O)N(C)C)cc2)n1 [GSK1070916]	True
Cc1cc(F)c(Nc2ncnc3cc(OCc4ccccc4)ccc23)cc1O [ZM 323881 HCl, reference compound]	False
O=C(c1ccc(/C=C/c2n[nH]c3ccccc23)cc1)N1CCNCC1 [KW 2449]	True

Given Cc1nc(N)sc1-c1ccnc(Nc2ccc(N3CCOCC3)cc2)n1 [CYC116] , is recorded viability at 72 h strictly lower than 70%? True

Given O=C(Nc1cccc(Cl)c1)Nc1ncc(CCNc2ncnc3ccsc23)s1 [SNS-314 Mesylate] , is recorded viability at 72 h strictly lower than 70%? True

Given Cc1cc(CN2CCN(c3c(Br)cnc4[nH]c(-c5ccc(N6CCN(C)CC6)cc5)nc34)CC2)no1 [CCT137690] , is recorded viability at 72 h strictly lower than 70%? False

Given O=C(c1ccc(Nc2nccc(-c3cc4ccccc4s3)n2)cc1)N1CCC(N2CCCC2)CC1 [IKK-16] , is recorded viability at 72 h strictly lower than 70%? True

Given Cc1cc(Nc2cc(N3CCN(C)CC3)nc(/C=C/c3ccccc3)n2)n[nH]1 [ENMD-2076] , is recorded viability at 72 h strictly lower than 70%? True

Given CN(C[C@@H]1COCCO1)S(=O)(=O)Nc1ccc2ccc3ncc(-c4cnn(C)c4)cc3c(=O)c2c1 [MK-2461] , is recorded viability at 72 h strictly lower than 70%? True
